Kindly state herbicidal effect in percent, Echinochloa for each of the entries shown.
test system: Echinochloa; assay: Post-emergence herbicidal effect, greenhouse; format: in vivo; conditions: 320 g a.i./ha, scored after about 3 weeks
I'd appreciate it if you included the unit after the number.

Field: example entries. Status: answers known.
Cc1ccc(-c2ccc(Cl)cc2)cc1C1(Cl)C(=O)OC(C)(C)C(C)(C)C1=O (centres unmarked) | 70%
CCc1cc(Cl)cc(Cl)c1C1(Cl)C(=O)N(C)OC(C)(C)C1=O (centres unmarked) | 90%
CCc1cc(Br)ccc1C1(Cl)C(=O)N(C)OC(C)(C)C1=O (centres unmarked) | 90%

Hi team, please reply with herbicidal effect in percent, Echinochloa for each item in this list.
1. CC1(C)OC(=O)C(Cl)(c2cc(-c3ccc(Cl)cc3Cl)ccc2Cl)C(=O)C1(C)C (centres unmarked)
2. Cc1ccc(-c2ccc(Cl)cc2)cc1C1(Cl)C(=O)OC2CCCCC2(C)C1=O (centres unmarked)

### Response
90%
100%
